Molecular target: T1, Mutant 1 of human SPNS2 (FLAG tag inserted in extracellular loop 1) (human, UniProt Q8IVW8 1-549)
T1 construct: on HEK293 cells; also called extracellular loop 1 mutant
T1 sequence: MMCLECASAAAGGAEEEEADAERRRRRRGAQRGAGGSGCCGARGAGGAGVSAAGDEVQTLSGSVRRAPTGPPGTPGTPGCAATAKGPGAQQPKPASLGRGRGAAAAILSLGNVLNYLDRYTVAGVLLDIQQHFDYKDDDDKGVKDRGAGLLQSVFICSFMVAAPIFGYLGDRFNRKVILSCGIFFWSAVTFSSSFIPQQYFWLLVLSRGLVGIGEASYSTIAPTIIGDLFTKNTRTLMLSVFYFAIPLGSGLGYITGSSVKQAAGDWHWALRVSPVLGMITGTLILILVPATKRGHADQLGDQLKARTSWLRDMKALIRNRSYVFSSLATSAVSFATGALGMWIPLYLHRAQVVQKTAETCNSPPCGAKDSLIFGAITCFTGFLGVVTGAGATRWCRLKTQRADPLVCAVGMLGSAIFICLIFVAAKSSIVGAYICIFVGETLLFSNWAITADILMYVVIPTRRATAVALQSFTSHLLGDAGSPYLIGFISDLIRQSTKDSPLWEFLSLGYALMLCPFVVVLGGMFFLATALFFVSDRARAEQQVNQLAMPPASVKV
Assay: flow cytometry, FLAG-insertion mutant
reported-property: FITC+/Alexa 647+ cell rate ratio

93-1310F (antibody, IgG2b, V domains shown) VH: EVQLVETGGGLVQPGSSLKLSCATSGFTFSDTWMSWVRQAPGKGLEWVALIKDKNSNYEANYAESVKGRFTISRDDSKRRVYLQMFTLRDQDTATYYCTSHEDFYYYSSYYFDYWGHGVMVTVSS VL: DIVLTQSPATLSVTPGESVSLSCRASQGISTSIHWYQQKSNGSPRLLIKYASQSISGIPSRFSGSGSGTDFTLRINRVESEDFSVYYCQQTYSLPLTFGSGTRLEIKR :: < 0.1 ratio

Prompt: Param item = 83-1110B (antibody, IgG2b, V domains shown) VH: EVQLQQSGPEFVRPGTSVKFSCKVSGGSITSYFIHFVKQRPGQGLEWIGKIDPEDDSTKYGEKFKNKATLTADTSSNTAFLKLSSLTSEDTAIYFCTTLTGLDYWGQGVMVTVSS VL: DIQMTQSPPVLSAAVGDRVTLSCKASRSLNKNLDWYQQKHGETPKLLIYHTHNLQTGIPSRFSGSGSDTDYTLTISSLQTEDVATYYCYQYHSGWTFGGGTRLELRR ; retrieve measured FITC+/Alexa 647+ cell rate ratio.
Completion: < 0.1 ratio

Prompt: Param item = 82-1109A (antibody, IgG2b, V domains shown) VH: QVQLQQSGVELAKPGSSVKISCKASGNTFTSNYITWIKQTPGQGLEYIGYINTGSGKTYYNEKFKGKATLTADKSSSTAFMQLSSLTPDDSAVYFCASLTGVDYFDDWGQGVMVTVSS VL: DDIVLTQSPALAPSLGQRATISCRASQSVRMSGYNLMHWYQQKPGQQPKLLIYDASKLASGIPARFSGSGSGTDFTLTIDPVQSDDIATYYCQQSKDDPYTFGAGTKLELRR ; retrieve measured FITC+/Alexa 647+ cell rate ratio.
Completion: ≥ 0.5 ratio

Prompt: Param item = 96-1403F (antibody, IgG2b, V domains shown) VH: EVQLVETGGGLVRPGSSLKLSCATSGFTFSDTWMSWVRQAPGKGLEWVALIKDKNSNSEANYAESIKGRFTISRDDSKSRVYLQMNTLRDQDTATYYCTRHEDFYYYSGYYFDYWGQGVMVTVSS VL: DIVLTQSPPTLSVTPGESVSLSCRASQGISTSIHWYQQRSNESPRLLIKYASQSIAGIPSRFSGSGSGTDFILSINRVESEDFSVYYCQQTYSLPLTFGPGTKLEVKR ; retrieve measured FITC+/Alexa 647+ cell rate ratio.
Completion: < 0.1 ratio

Prompt: Param item = 65-0810G (antibody, IgG2b, V domains shown) VH: EVHLVESGGGLVQPGRSMKLSCTASGFTFNNYYMAWVRQAPTKGLEWVASISTGGGYTYYRDSVKGRFTISRDNTGNTLYLQMDSLRSEDTATYYCARCWELPYWGQGVMVTVSS VL: QFVLTQPNSVSTNLGSTVKLSCRRSSGNIGNNYVNWYRQHEGRSPTTMIYRDDTRPDGVPNRFSGSIDRSSNSALLTINNVRPEDEAYYFCQSYSGSIYIFGGGTKLTVL ; retrieve measured FITC+/Alexa 647+ cell rate ratio.
Completion: < 0.1 ratio
